Test: qHTS of pediatric cancer cell lines to identify multiple opportunities for drug repurposing: Primary screen for NB-EBc1 cells (AID 1347095); also: potency is read from the fitted curve at half-maximal effect
Experimental Parameters: NB-EBc1 neuroblastoma viability, CellTiter-Glo luminescence, 48 h; series mostly up to 46 µM
Results filed as inconclusive are left out. The source made the active and inactive calls. Calls follow the shape of the dose curve; as a rule, active = well fitted cell-killing curve with a large enough effect; inconclusive = small, poorly fitted or top-dose-only effect; inactive = no such curve, though single readings can be large or run the other way.
Readout Kind: Potency

These solved cases illustrate the format of a correct answer.
C=CCc1ccc(O)c(-c2ccc(O)c(CC=C)c2)c1 | inactive
Oc1ccc(C2=Cc3ccc(O)cc3OC2)cc1 | 1660 nM (active)
Cc1cc(OCCCc2c(C(=O)O)n(Cc3cccnc3)c3c(-c4c(COc5ccc(N6CCN([S+](C)(=O)[O-])CC6)cc5)nn(C)c4C)cccc23)cc(C)c1Cl | 23500 nM (active)
O=C(O)CCC1CCC(c2cc(F)ccc2F)(S(=O)(=O)c2ccc(Cl)cc2)CC1 (centres undefined) | inactive
NC(CO)(CO)CCc1ccc(Sc2cccc(OCc3ccccc3)c2)cc1Cl | 1870 nM (active)
CCn1cc(C(=O)O)c(=O)c2ccc(C)nc21 | inactive

Enquiry: Dear colleague, I am looking for the recorded Potency of the following molecule: COc1cc2ncnc(-n3nc(-c4ccccn4)nc3N)c2cc1OC
Return: 14800 nM (active)

Enquiry: Quick one: Cc1[nH]c(C=C2C(=O)Nc3ccc(S(=O)(=O)Cc4c(Cl)cccc4Cl)cc32)c(C)c1C(=O)N1CCC[C@H]1CN1CCCC1
Return: inactive

Enquiry: Quick one: Nc1ncnc2ccccc12
Return: inactive

Enquiry: Quick one: CC1(C)CCC(CN2CCN(c3ccc(C(=O)NS(=O)(=O)c4ccc(NCC5CCOCC5)c([N+](=O)[O-])c4)c(Oc4cnc5[nH]ccc5c4)c3)CC2)=C(c2ccc(Cl)cc2)C1
Return: 1870 nM (active)

Enquiry: Quick one: OC[C@@H](O)[C@H](O)[C@H](O)[C@@H](O)CO
Return: inactive

Enquiry: Quick one: CC(C)C[C@H](CC(=O)O)C(=O)N[C@@H](Cc1c[nH]c2ccccc12)C(=O)N[C@@H](C)c1ccccc1
Return: 1050 nM (active)

Enquiry: Quick one: O=c1c(-c2ccc(O)cc2)coc2cc(O)ccc12
Return: inactive

Enquiry: Quick one: CC(C)(C)Cn1c(N)nc2ccc(-c3[nH]c(C(C)(C)C)nc3-c3ccc(F)cc3)nc21
Return: inactive

Enquiry: Quick one: O=c1cc(-c2cccc3c2Sc2ccccc2S3)oc(N2CCOCC2)c1
Return: inactive

Enquiry: Quick one: CO[C@H]1C=CC=C(C)C(=O)NC2=CC(=O)C(NCCN(C)C)=C(C[C@@H](C)C[C@H](OC)[C@@H](O)[C@@H](C)C=C(C)[C@@H]1OC(N)=O)C2=O
Return: 118 nM (active)

Enquiry: Quick one: CS(=O)(=O)N(Cc1ccco1)CC(O)Cn1c2ccccc2c2ccccc21 (centres undefined)
Return: inactive

Enquiry: Quick one: O=C(O)c1cc(-c2ccccc2)nc2ccccc12
Return: inactive

Enquiry: Quick one: CC1(C)CCC[C@@]2(C)[C@@H]1CC[C@@]1(C)OC(=O)C[C@H]21
Return: inactive

---

Test: Cell Viability - LYMP2-009 (AID 968);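 also: cells exposed to compound for 24 h at 37 °C; nearly all actives have a fitted effect of over 55% in size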
Experimental Parameters: LYMP2-009 lymphoblastoid cell viability; series mostly up to 92.2 µM
Inconclusive results are not listed. Activity calls are given as the source filed them. Calls come from the whole dose curve; as a rule, active = well fitted cell-killing curve with a large enough effect; inconclusive = small, poorly fitted or top-dose-only effect; inactive = flat fitted curve, though single readings scatter.
Pick one: active, inactive

O=C(O)Cc1cccc2ccccc12 | inactive
CN(C)CCC(c1ccccc1)c1ccccn1 (configuration not stated) | inactive
O=c1c(-c2ccc(O)cc2)coc2cc(O)ccc12 | inactive
CC/C(=C(\c1ccccc1)c1ccc(OCCN(C)C)cc1)c1ccccc1 | active
O=c1[nH]cnc2c1ncn2[C@H]1CC[C@@H](CO)O1 | inactive

Enquiry: For CCCCC1C(=O)N(c2ccccc2)N(c2ccccc2)C1=O , what call appears in the results of this test?
Return: inactive

Enquiry: Quick one: O=C1NC(=O)C(c2ccccc2)(c2ccccc2)N1
Return: inactive
